Recorded CLint scaled at 1 h, 1 µM, one value per entry.
- Format: in vitro ADME, rat
- Cond: female, rat, pooled rat liver microsomes, pH 7.4
Measure: CLint scaled at 1 h, 1 µM (mL/min/kg)

- COc1ccccc1-n1ccnc1/C=C/C(=O)/C=C/c1nccn1-c1ccccc1OC [Compound 17d]: 7.96
- COc1cc(/C=C/C(=O)CC(=O)/C=C/c2ccc(O)c(OC)c2)ccc1O [curcumin, Diferuloylmethane, reference compound]: 161
- O=C(/C=C/c1nccn1-c1ccccc1)/C=C/c1nccn1-c1ccccc1 [Compound 17a]: 60.4
- CC(C)CCn1ccnc1/C=C/C(=O)/C=C/c1nccn1CCC(C)C: 39.2
